System: MCF7 breast
protocol: NCI-60 one-dose screen, 48 h (100 = growth as untreated, 0 = no growth, -100 = all killed)
experimentalParameters: 10 µM unless noted
This is part of a sample that, as a whole, favours compounds with a hit. Of some 83,000 tested, about 20% had one in any assay.
reportedProperty: growth (%)
Report as a plain number; the unit % is understood.

IN: GET growth | system: MCF7 breast | item: Cc1cc(Cl)c2ccc(N(C)C)cc2n1
OUT: 92.1

IN: GET growth | system: MCF7 breast | item: COc1cc(/C=C2\C(=O)Nc3ccc(N(C)C)cc32)cc(OC)c1OC
OUT: 12

IN: GET growth | system: MCF7 breast | item: CN(C)CCOc1nc2c3ccncc3cc(-c3cccc(Cl)c3)c2c2cnccc12
OUT: 12.5

IN: GET growth | system: MCF7 breast | item: O=C(/C=C/c1cc([N+](=O)[O-])ccc1Cl)c1ccccc1
OUT: 20.6

IN: GET growth | system: MCF7 breast | item: C#CC[C@@H]1C[C@]2(C)[C@H]3CC=C4[C@H]5[C@@H](C)[C@H](C)CC[C@]5(C(=O)NCCCCCCCCN)CC[C@@]4(C)[C@]3(C)CC[C@H]2C(C)(C)[C@H]1OC(C)=O
OUT: -80.4

IN: GET growth | system: MCF7 breast | item: COc1ccc(C2C3=C(COC3=O)N(CCO)c3cc(OC)c(OC)cc32)cc1 (centres undefined)
OUT: 103

IN: GET growth | system: MCF7 breast | item: CCCCn1cnc(-c2cc(-c3ccccc3)cc(C(F)(F)F)c2)n1
OUT: 99.6

IN: GET growth | system: MCF7 breast | item: CC(C)(C)c1ccc(Cn2c(-c3nonc3N)nc3ccccc32)cc1
OUT: 35.5

IN: GET growth | system: MCF7 breast | item: O=C1/C(=C\c2cccn2Cc2ccc(F)cc2)c2ccccc2N1c1c(Cl)cccc1Cl
OUT: 12.6

---

Test system: KM12 colon
protocol: NCI-60 one-dose screen, 48 h (100 = growth as untreated, 0 = no growth, -100 = all killed)
experimentalParameters: 10 µM unless noted
Compounds without any hit were thinned out: in the full panel of roughly 83,000, 20% have a hit.
reportedProperty: growth (%)
Report as a plain number; the unit % is understood.

IN: GET growth | system: KM12 colon | item: COc1ccc(C(=O)/C=C/c2cn(-c3ccccc3)nc2-c2cccc(Nc3ccnc4cc(Cl)ccc34)c2)cc1
OUT: 94.9

IN: GET growth | system: KM12 colon | item: CCOC(=O)C(Nc1ccccc1)C(=O)OCC
OUT: 115

IN: GET growth | system: KM12 colon | item: O=[N+]([O-])c1cccc([I+]c2ccccc2)c1
OUT: 60.5

IN: GET growth | system: KM12 colon | item: COc1ccc(OC)c(Nc2nc(-c3c(C)nc4sccn34)cs2)c1
OUT: 69.2

IN: GET growth | system: KM12 colon | item: Cc1cc(NC(=O)c2ccc(N)cc2)ccc1N=Nc1ccc2cc(S(=O)(=O)O)cc(S(=O)(=O)O)c2c1
OUT: 105

IN: GET growth | system: KM12 colon | item: CCCc1n(Cc2ccc3ccccc3c2)c2ccccc2[n+]1Cc1ccc2ccccc2c1
OUT: -75

IN: GET growth | system: KM12 colon | item: Cc1nc2ccc(Nc3nc(N4CCOCC4)nc(N4CCN(C)CC4)n3)cc2n1Cc1ccccc1
OUT: 93.2

IN: GET growth | system: KM12 colon | item: C#CC[C@@H]1C[C@]2(C)[C@H]3CC=C4[C@H]5[C@@H](C)[C@H](C)CC[C@]5(C(=O)NCCCCCCCCN)CC[C@@]4(C)[C@]3(C)CC[C@H]2C(C)(C)[C@H]1OC(C)=O
OUT: 0.426

IN: GET growth | system: KM12 colon | item: CCCCNCC(O)c1cc(-c2ccc(C(F)(F)F)cc2)nc(-c2ccc(C(F)(F)F)cc2)c1 (stereo not given)
OUT: -89.2

IN: GET growth | system: KM12 colon | item: C=CCn1c(SCC(=O)Nc2ccc(C(=O)/C=C/c3ccc(Cl)cc3)cc2)nnc1-c1ccc(Cl)cc1
OUT: 94.2

---

Test system: NCI-H522 lung
protocol: NCI-60 one-dose screen, 48 h (100 = growth as untreated, 0 = no growth, -100 = all killed)
experimentalParameters: 10 µM unless noted
About 83,000 compounds went through this panel and 20% of them were active in at least one assay; those are over-represented in the sample as a whole.
Please respond with reported growth for every item in the list.
Report as a plain number; the unit % is understood.

IN: Quick one: give measured growth for CCN(CC)CCNc1c(C)cc(CO)c(Cl)c1C
OUT: 104

IN: Quick one: give measured growth for COc1ccc(Nc2ncnc3c2sc2nc(C)cc(C)c23)cc1
OUT: 99.9

IN: Quick one: give measured growth for O=C(O)c1ccccc1N=Cc1ccccc1
OUT: 101

IN: Quick one: give measured growth for CC(CN1CCN(C)CC1)CN1c2ccccc2Sc2ccc(C(F)(F)F)cc21 (stereo not given)
OUT: 43.8

IN: Quick one: give measured growth for Cc1ccc(/C=C/C(=N/N=C(N)N)c2ccccc2)cc1
OUT: 9.07

---

Test system: UO-31 renal
protocol: NCI-60 one-dose screen, 48 h
experimentalParameters: 10 µM unless noted
Description: Growth inhibition of the UO-31 human tumor cell line is measured as a screen for anti-cancer activity. Cells are grown in 96 well plates and exposed to the test compound for 48 hours. Compounds are tested at a single concentration, which is 10^-5 M for most compounds. The reported endpoint is percent growth (GI% or GIPRCNT), where numbers from 0 - 100% represent growth inhibition, and numbers from -100% - 0 represent cell death. For example, a value of 40 represents 60% growth inhibition. […]
The panel holds about 83,000 compounds, 20% with a hit somewhere; the sample as a whole holds those more often. The source made the active and inactive calls. How the source made its calls: active means growth percent below 10; inactive means the rest.
Assign a class; possible classes are active, inactive

IN: Recorded call for COc1ccc(-c2nc3ccc(Cc4ccc5nc(-c6ccc(OC)cc6)[nH]c5c4)cc3[nH]2)cc1 ?
OUT: inactive

IN: Recorded call for Cc1ccc(O)c(Cc2ccccc2)c1 ?
OUT: inactive

IN: Recorded call for O=C(NCC(c1ccsc1)N1CCCCCC1)c1ccc(C(F)(F)F)cc1 (stereo not given) ?
OUT: inactive

IN: Recorded call for Nc1n[nH]c2ccc([C@@H]3Nc4c(F)cc5[nH]ncc5c4[C@H]4C5CCC(C5)[C@@H]34)cc12 (stereo not given in full) ?
OUT: inactive

IN: Recorded call for Fc1ccc2c(CN3CCO[C@H](COc4cccc(Cl)c4)C3)c[nH]c2c1 ?
OUT: inactive

IN: Recorded call for CCCCNCC(O)c1cc(-c2ccc(C(F)(F)F)cc2)nc(-c2ccc(C(F)(F)F)cc2)c1 (stereo not given) ?
OUT: active

IN: Recorded call for Clc1ccccc1Nc1nnc(-c2ccncc2)s1 ?
OUT: inactive

IN: Recorded call for Nc1nc2ccc([C@@H]3Nc4ccc5[nH]ncc5c4[C@H]4[C@H]5CCC(C5)[C@H]43)cc2s1 ?
OUT: inactive

IN: Recorded call for CCC(=O)NC(O)C(Cl)(Cl)C(C)Cl (stereo not given) ?
OUT: inactive

IN: Recorded call for O=c1[nH]c2ccccc2n2cc3cccnc3c12 ?
OUT: inactive

---

Please respond with reported growth for every item in the list.
Tested on: NCI-H322M lung
protocol: NCI-60 one-dose screen, 48 h (100 = growth as untreated, 0 = no growth, -100 = all killed)
experimentalParameters: 10 µM unless noted
Method: Growth inhibition of the NCI-H322M human Non-Small Cell Lung tumor cell line is measured as a screen for anti-cancer activity. Cells are grown in 96 well plates and exposed to the test compound for 48 hours. Compounds are tested at a single concentration, which is 10^-5 M for most compounds. The reported endpoint is percent growth (GI% or GIPRCNT), where numbers from 0 - 100% represent growth inhibition, and numbers from -100% - 0 represent cell death. […]
The panel holds about 83,000 compounds, 20% with a hit somewhere; the sample as a whole holds those more often.
Report as a plain number; the unit % is understood.

IN: Quick one: give measured growth for O=C(C(=O)c1cccnc1)c1cccnc1
OUT: 117

IN: Quick one: give measured growth for O=C(/C=C/c1cc([N+](=O)[O-])ccc1Cl)c1ccccc1
OUT: 88.1

IN: Quick one: give measured growth for CCOC(=O)Nc1ccc2nc(-c3cscn3)[nH]c2c1
OUT: 63.1

IN: Quick one: give measured growth for O=C(Nc1ccccc1)C(CCCCN1C(=O)c2ccccc2C1=O)N1C(=O)c2ccccc2C1=O (centres undefined)
OUT: 98

---

Tested on: NCI-H460 lung
protocol: NCI-60 one-dose screen, 48 h (100 = growth as untreated, 0 = no growth, -100 = all killed)
experimentalParameters: 10 µM unless noted
The panel holds about 83,000 compounds, 20% with a hit somewhere; the sample as a whole holds those more often.
Friendly reminder: growth below 90% is Met, at or above is Not met.

IN: Is growth strictly under 90% for the entry O=C(O)/C=C(\c1nc2ccc([N+](=O)[O-])cc2[nH]1)c1cc(Cl)ccc1O ?
OUT: Met

IN: Is growth strictly under 90% for the entry Clc1ccccc1Nc1nnc(-c2ccncc2)s1 ?
OUT: Not met

IN: Is growth strictly under 90% for the entry CCCCn1c(C)nc2ccc(Nc3nc(Cl)nc4nc[nH]c34)cc21 ?
OUT: Met

IN: Is growth strictly under 90% for the entry COc1ccc(C2CC(c3ccc(Nc4ccnc5cc(Cl)ccc45)cc3)=NN2c2ccccc2)cc1 (stereo not given) ?
OUT: Met

IN: Is growth strictly under 90% for the entry CO[C@@]12[C@@H]3NC3CN1C1=C(C(=O)C(N)=C(C)C1=O)[C@@H]2COC(N)=O (stereo not given in full) ?
OUT: Met

IN: Is growth strictly under 90% for the entry N[C@@H](CO)C(=O)O ?
OUT: Not met

IN: Is growth strictly under 90% for the entry COc1cc(C2CC(c3cccc(Nc4ccnc5cc(Cl)ccc45)c3)=NN2c2ccc(Cl)cc2)cc(OC)c1OC (stereo not given) ?
OUT: Met

IN: Is growth strictly under 90% for the entry COc1cc(OC)cc(-c2n/c(=C\c3c(O)[nH]c4ccc(Cl)cc34)cc3c2=Nc2ccccc2-3)c1 ?
OUT: Met

IN: Is growth strictly under 90% for the entry COc1cc2nccc(Oc3ccc(NC(=O)C4(C(=O)Nc5c(F)cc(F)cc5F)CC4)cc3)c2cc1Oc1ccc(N)cn1 ?
OUT: Met

IN: Is growth strictly under 90% for the entry CC(=O)OC1Oc2ccccc2-c2oc3nc(=N)n(C)c-3cc21 (stereo not given) ?
OUT: Not met

IN: Is growth strictly under 90% for the entry COc1ccc(/C(=C\c2cc(OC)c(OC)c(OC)c2)C(=O)N2CCCNCC2)cc1 ?
OUT: Not met

IN: Is growth strictly under 90% for the entry NS(=O)(=O)c1ccc(N2N=C(c3cccs3)CC2c2ccccc2O)cc1 (stereo not given) ?
OUT: Met

IN: Is growth strictly under 90% for the entry O=C(CSc1ccc(Cl)cc1)Nc1ccc(-c2nc3ccccc3s2)c(Cl)c1 ?
OUT: Met

IN: Is growth strictly under 90% for the entry COc1cc(C2CC(c3ccc(Nc4ccnc5cc(Cl)ccc45)cc3)=NN2c2ccccc2)cc(OC)c1OC (stereo not given) ?
OUT: Met

IN: Is growth strictly under 90% for the entry COC(=O)c1cc2oc(/C=N/NC(=O)c3cc4oc(-c5cccc(C(F)(F)F)c5)cc4[nH]3)cc2n1Cc1ccccc1 ?
OUT: Not met

IN: Is growth strictly under 90% for the entry C/C(=N\OC(=O)Nc1ccccc1)c1ccccc1 ?
OUT: Not met

IN: Is growth strictly under 90% for the entry O=Cc1ccc2nc(C(Cl)(Cl)Cl)ccc2c1 ?
OUT: Not met

IN: Is growth strictly under 90% for the entry COc1ccc(/C=C2\N=C(c3cccnc3)N(c3ccccc3)NC2=O)cc1 ?
OUT: Not met

IN: Is growth strictly under 90% for the entry O=C1/C(=C\c2cccn2C(=O)c2ccccc2)c2ccccc2N1c1c(Cl)cccc1Cl ?
OUT: Not met

IN: Is growth strictly under 90% for the entry C=CCn1c(SCC(=O)Nc2ccc(/C(C)=N\O)cc2)nnc1-c1cc(-c2ccc(Cl)cc2)nc2ccccc12 ?
OUT: Met

IN: Is growth strictly under 90% for the entry CC(C)=CCC[C@H](C)c1ccc(C)c2c1OCN(CCO)C2 ?
OUT: Not met

IN: Is growth strictly under 90% for the entry Cc1[nH]n(C(=O)c2ccncc2)c(=O)c1N=Nc1ccc(O)c(C(=O)O)c1 ?
OUT: Not met

IN: Is growth strictly under 90% for the entry CCN(CC)CCCC(C)Nc1cnc(C(=O)Nc2ccc(Cl)c3cccnc23)cn1 (stereo not given) ?
OUT: Met

IN: Is growth strictly under 90% for the entry O=C(NCCNC(=O)c1cc(S(=O)(=O)NCCc2ccccc2)c(O)c(O)c1O)c1cc(S(=O)(=O)NCCc2ccccc2)c(O)c(O)c1O ?
OUT: Met

IN: Is growth strictly under 90% for the entry Nc1ccc(N(O)/C=C2\C=CC=CC2=O)cc1N ?
OUT: Not met

IN: Is growth strictly under 90% for the entry Cn1c(=O)c2[nH]c(Cc3ccc4c(c3)OCO4)nc2n(C)c1=O ?
OUT: Not met

IN: Is growth strictly under 90% for the entry O=C(Nc1ccc2ncnc(Nc3ccc(F)c(Cl)c3)c2c1)c1cccs1 ?
OUT: Met

IN: Is growth strictly under 90% for the entry Brc1ccccc1Cn1c(-c2cncs2)nc2ccccc21 ?
OUT: Met

IN: Is growth strictly under 90% for the entry Brc1cccc(-n2ncc3c(Nc4ccc(-c5nnc(-c6ccccc6)o5)cc4)ncnc32)c1 ?
OUT: Not met

IN: Is growth strictly under 90% for the entry O=C(CCCCCCc1nc2ccc(Br)cc2[nH]1)NO ?
OUT: Met
